target: HCV NS5B RdRp genotype 1b (Hepatitis C virus genotype 1b, UniProt Q9WMX2); construct: The protein was expressed with an 18 amino acid C-terminal truncation to enhance the solubility; made in house; host or cells: E. coli BL21 (DE3), pET21a; assay: Modified HCV NS5B RdRp enzyme assay (with preincubation); format: biochemical; details: modified method (with preincubation)
Sequence (Q9WMX2 2420-2992): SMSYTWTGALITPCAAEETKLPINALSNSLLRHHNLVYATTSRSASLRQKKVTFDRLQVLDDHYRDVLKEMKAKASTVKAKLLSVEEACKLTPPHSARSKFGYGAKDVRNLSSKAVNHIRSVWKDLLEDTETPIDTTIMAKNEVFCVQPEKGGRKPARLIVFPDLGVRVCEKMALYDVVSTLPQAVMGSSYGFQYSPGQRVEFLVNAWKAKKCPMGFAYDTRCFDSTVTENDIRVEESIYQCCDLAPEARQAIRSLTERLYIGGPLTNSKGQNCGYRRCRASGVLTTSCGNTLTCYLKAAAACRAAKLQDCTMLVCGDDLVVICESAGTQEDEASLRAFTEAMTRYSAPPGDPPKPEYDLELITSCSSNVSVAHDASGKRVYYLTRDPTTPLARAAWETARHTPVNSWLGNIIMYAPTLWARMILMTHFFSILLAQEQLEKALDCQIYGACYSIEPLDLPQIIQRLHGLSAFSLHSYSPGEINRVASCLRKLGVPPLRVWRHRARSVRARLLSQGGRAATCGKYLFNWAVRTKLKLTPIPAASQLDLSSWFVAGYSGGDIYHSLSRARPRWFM
pIC50: −log10 of the molar value.
METRIC: pIC50

{"COMPOUND": "CC(C)N(C(=O)C1=Cc2ccccc2-c2c(C3CCCCC3)c3ccc(C(=O)NS(=O)(=O)N(C)C)cc3n2C1)C(C)C", "EXPERIMENTAL_TARGET": "HCV NS5B RdRp genotype 1b (Hepatitis C virus genotype 1b, UniProt Q9WMX2)", "pIC50": "6.00 to 7.70"}

[Q] Consider the compound shown here: `O=C(O)c1ccc2c(C3CCCCC3)c3n(c2c1)CCCCN(CCO)c1ccccc1-3` What is its recorded pIC50?
[A] < 6.00

[Q] Consider the compound shown here: `CN(Cc1ccc(C(=O)O)cc1)S(=O)(=O)NC(=O)c1ccc2c(C3CCCCC3)c3n(c2c1)CC(=O)Nc1ccccc1-3` What is its recorded pIC50?
[A] 6.00 to 7.70

[Q] Consider the compound shown here: O=C(O)/C=C/c1ccc(NC(=O)C2(NC(=O)c3ccc4c(C5CCCCC5)c5n(c4c3)CC(C(=O)N3CCN(c4ccncc4)CC3)Cc3ccccc3-5)CCCC2)cc1 (centres unmarked) What is its recorded pIC50?
[A] 6.00 to 7.70

[Q] Consider the compound shown here: CN(C)S(=O)(=O)NC(=O)c1ccc2c(c1)N1C(O)c3cc(OCc4ccccc4)ccc3C1C2 (centres unmarked) What is its recorded pIC50?
[A] 6.00 to 7.70

[Q] Consider the compound shown here: `c1cnc2c(c1)-c1c(C3CCCCC3)c3ccc(-c4nnn[nH]4)cc3n1CCC2` What is its recorded pIC50?
[A] 6.00 to 7.70

[Q] Consider the compound shown here: `CN(C)S(=O)(=O)NC(=O)c1ccc2c(C3CCCCC3)c3n(c2c1)CC(C(=O)O)=Cc1ccccc1-3` What is its recorded pIC50?
[A] 6.00 to 7.70

[Q] Consider the compound shown here: `Cc1nc2c(s1)CCCn1c-2c(C2CCCCC2)c2ccc(C(=O)O)cc21` What is its recorded pIC50?
[A] < 6.00
